Each recorded value in this set is attributed to ChEMBL document CHEMBL4602702.

pKi, Muscarinic acetylcholine receptor M5 (Homo sapiens, UniProt P08912), per-entry values.
Answers are plain numbers, as −log10 of the molar value.

The following compounds have reported results that may help.
# smilesInput, value
measured = [
    ("Cc1cc(/C=C/C=C/c2ccc(N(C)C)cc2)cc(C)[n+]1CCN1CCN(CCCCC2CCN(CC(=O)N3c4ccccc4NC(=O)c4ccccc43)CC2)CC1", 6.41),
    ("CC1(C)C(/C=C/C=C/C=C2/N(CCCCCC(=O)NCc3cc(C(=O)NCCN4CCC(N5CCC(n6c(=O)[nH]c7ccccc76)CC5)CC4)cc(C(=O)NCCN4CCN(CCCCC5CCN(CC(=O)N6c7ccccc7NC(=O)c7ccccc76)CC5)CC4)c3)c3ccc(S(=O)(=O)[O-])cc3C2(C)C)=[N+](CCCCS(=O)(=O)O)c2ccccc21.O=C(O)C(F)(F)F.O=C(O)C(F)(F)F.O=C(O)C(F)(F)F.O=C(O)C(F)(F)F", 7.51),
    ("CC1(C)C(/C=C/C=C/C=C2/N(CCCCCC(=O)NCCN3CCN(CCCCC4CCN(CC(=O)N5c6ccccc6NC(=O)c6ccccc65)CC4)CC3)c3ccc(S(=O)(=O)O)cc3C2(C)C)=[N+](CCCCS(=O)(=O)[O-])c2ccccc21.O=C(O)C(F)(F)F.O=C(O)C(F)(F)F", 6.87),
]

# evaluate next
Query: Any idea what its pKi is? The compound is `C[N+]1=C(/C=C/C=C/C=C2/N(CCCCCC(=O)NCCCCC3CCN(CC(=O)N4c5ccccc5NC(=O)c5ccccc54)CC3)c3ccccc3C2(C)C)C(C)(C)c2ccccc21`
Result: 6.54

---

Target: Muscarinic acetylcholine receptor M4 (Homo sapiens, UniProt P08173)
Sequence (P08173 whole entry): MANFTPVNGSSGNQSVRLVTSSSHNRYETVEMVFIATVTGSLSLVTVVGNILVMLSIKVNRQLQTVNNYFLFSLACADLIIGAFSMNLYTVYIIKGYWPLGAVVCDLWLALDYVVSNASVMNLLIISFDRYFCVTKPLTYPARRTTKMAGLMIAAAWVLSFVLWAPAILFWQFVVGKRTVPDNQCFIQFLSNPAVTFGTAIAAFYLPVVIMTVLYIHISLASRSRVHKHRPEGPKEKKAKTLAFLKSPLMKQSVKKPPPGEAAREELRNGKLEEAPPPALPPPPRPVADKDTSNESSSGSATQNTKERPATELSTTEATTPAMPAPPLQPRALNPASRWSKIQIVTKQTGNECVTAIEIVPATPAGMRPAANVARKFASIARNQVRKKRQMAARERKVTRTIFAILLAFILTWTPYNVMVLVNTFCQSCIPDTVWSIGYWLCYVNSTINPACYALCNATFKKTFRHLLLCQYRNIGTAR
Assay: Antagonist activity at human muscarinic M4 receptor expressed in HEK293 cells co-expressing HA-Galphaq/i5 assessed as inhibition of carbachol-induced IP1 accumulation at 22 degree C pre-incubated for 180 mins followed by carbachol addition and further incubated at 37 degree C for 90 mins by HTRF assay
measuredParameter: pIC50
Numbers only, as −log10 of the molar value.

The following compounds have reported results that may help.
# smilesInput, measuredParameter, value
measured = [
    ("CC1(C)C(/C=C/C=C/C=C2/N(CCCCCC(=O)NCc3cc(C(=O)NCCNC(=O)CCc4cn(CCCCC5CCN(CC(=O)N6c7ccccc7NC(=O)c7ccccc76)CC5)cn4)cc(C(=O)NCCNC(=O)CCc4cn(CCCCC5CCN(CC(=O)N6c7ccccc7NC(=O)c7ccccc76)CC5)cn4)c3)c3ccc(S(=O)(=O)O)cc3C2(C)C)=[N+](CCCCS(=O)(=O)[O-])c2ccccc21.O=C(O)C(F)(F)F.O=C(O)C(F)(F)F.O=C(O)C(F)(F)F", "pIC50", 7.43),
    ("CC1(C)C(/C=C/C=C/C=C2/N(CCCCCC(=O)NCCN3CCN(CCCCC4CCN(CC(=O)N5c6ccccc6NC(=O)c6ccccc65)CC4)CC3)c3ccc(S(=O)(=O)O)cc3C2(C)C)=[N+](CCCCS(=O)(=O)[O-])c2ccccc21.O=C(O)C(F)(F)F.O=C(O)C(F)(F)F", "pIC50", 6.99),
    ("CC1(C)C(/C=C/C=C/C=C2/N(CCCCCC(=O)NCCN3CCN(CCCCC4CCN(CC(=O)N5c6ccccc6NC(=O)c6ccccc65)CC4)CC3)c3ccccc3C2(C)C)=[N+](CCCCS(=O)(=O)[O-])c2ccccc21", "pIC50", 7.04),
]

Query: Entry `CC1(C)C(/C=C/C=C/C=C2/N(CCCCCC(=O)NCCNC(=O)CCc3cn(CCCCC4CCN(CC(=O)N5c6ccccc6NC(=O)c6ccccc65)CC4)cn3)c3ccc(S(=O)(=O)O)cc3C2(C)C)=[N+](CCCCS(=O)(=O)[O-])c2ccccc21.O=C(O)C(F)(F)F` , system Muscarinic acetylcholine receptor M4 (Homo sapiens, UniProt P08173): what pIC50 was measured?
Result: 6.86

---

Target: Muscarinic acetylcholine receptor M2 (Homo sapiens)
Sequence (whole entry): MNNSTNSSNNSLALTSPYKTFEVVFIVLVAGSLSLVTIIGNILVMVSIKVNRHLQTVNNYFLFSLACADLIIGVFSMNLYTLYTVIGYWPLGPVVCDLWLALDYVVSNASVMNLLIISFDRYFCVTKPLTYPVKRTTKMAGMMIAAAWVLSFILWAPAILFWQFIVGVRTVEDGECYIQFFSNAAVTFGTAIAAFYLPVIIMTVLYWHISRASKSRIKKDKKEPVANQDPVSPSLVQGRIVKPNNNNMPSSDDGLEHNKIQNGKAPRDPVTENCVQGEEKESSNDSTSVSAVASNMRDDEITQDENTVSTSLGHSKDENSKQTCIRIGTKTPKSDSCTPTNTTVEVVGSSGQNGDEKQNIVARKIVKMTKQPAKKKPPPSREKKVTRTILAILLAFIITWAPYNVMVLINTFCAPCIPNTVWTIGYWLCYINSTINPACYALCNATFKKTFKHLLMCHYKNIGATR
Test: Binding affinity to human muscarinic M2 receptor expressed in […] cells assessed as unspecific binding at Kd incubated in dark at 22 degree C for 2 hrs in presence of atropine by FACSCalibur flow cytometric saturation binding study relative to control
Type: cell-based
For each record, write down the corresponding Activity.
Answers are plain numbers, in %.

The following compounds have reported results that may help.
# smilesInput, unitsOfMeasure, Activity
records = [
    ("CC1(C)C(/C=C/C=C/C=C2/N(CCCCCC(=O)NCCN3CCN(CCCCC4CCN(CC(=O)N5c6ccccc6NC(=O)c6ccccc65)CC4)CC3)c3ccccc3C2(C)C)=[N+](CCCCS(=O)(=O)[O-])c2ccccc21", "%", 10),
    ("CC1(C)C(/C=C/C=C/C=C2/N(CCCCCC(=O)NCc3cc(C(=O)NCCN4CCC(N5CCC(n6c(=O)[nH]c7ccccc76)CC5)CC4)cc(C(=O)NCCN4CCN(CCCCC5CCN(CC(=O)N6c7ccccc7NC(=O)c7ccccc76)CC5)CC4)c3)c3ccc(S(=O)(=O)[O-])cc3C2(C)C)=[N+](CCCCS(=O)(=O)O)c2ccccc21.O=C(O)C(F)(F)F.O=C(O)C(F)(F)F.O=C(O)C(F)(F)F.O=C(O)C(F)(F)F", "%", 10),
    ("CC1(C)C(/C=C/C=C/C=C2/N(CCCCCC(=O)NCCNC(=O)CCc3cn(CCCCC4CCN(CC(=O)N5c6ccccc6NC(=O)c6ccccc65)CC4)cn3)c3ccc(S(=O)(=O)O)cc3C2(C)C)=[N+](CCCCS(=O)(=O)[O-])c2ccccc21.O=C(O)C(F)(F)F", "%", 10),
]

# evaluate next
Query: Entry `CC1(C)C(/C=C/C=C/C=C2/N(CCCCCC(=O)NCCN3CCN(CCCCC4CCN(CC(=O)N5c6ccccc6NC(=O)c6ccccc65)CC4)CC3)c3ccc(S(=O)(=O)O)cc3C2(C)C)=[N+](CCCCS(=O)(=O)[O-])c2ccccc21.O=C(O)C(F)(F)F.O=C(O)C(F)(F)F` , system Muscarinic acetylcholine receptor M2 (Homo sapiens): what Activity was measured?
Result: 10

---

For each record, write down the corresponding Kd.
target: UniProtKB P08172; test: Binding affinity to human muscarinic M2 receptor expressed in CHO-K9 cells incubated in dark measured after 60 mins by Hoechst H33342 dye based confocal plate reader assay; type: cell-based; settings: read-out: pKd (converted)
Write the quantity with the unit trailing the number.

The following compounds have reported results that may help.
# smilesInput, measuredTarget, Kd
measured = [
    ("CC1(C)C(/C=C/C=C/C=C2/N(CCCCCC(=O)NCCNC(=O)CCc3cn(CCCCC4CCN(CC(=O)N5c6ccccc6NC(=O)c6ccccc65)CC4)cn3)c3ccc(S(=O)(=O)O)cc3C2(C)C)=[N+](CCCCS(=O)(=O)[O-])c2ccccc21.O=C(O)C(F)(F)F", "UniProtKB P08172", "11.5 nM"),
    ("CC1(C)C(/C=C/C=C/C=C2/N(CCCCCC(=O)NCc3cc(C(=O)NCCNC(=O)CCc4cn(CCCCC5CCN(CC(=O)N6c7ccccc7NC(=O)c7ccccc76)CC5)cn4)cc(C(=O)NCCNC(=O)CCc4cn(CCCCC5CCN(CC(=O)N6c7ccccc7NC(=O)c7ccccc76)CC5)cn4)c3)c3ccc(S(=O)(=O)O)cc3C2(C)C)=[N+](CCCCS(=O)(=O)[O-])c2ccccc21.O=C(O)C(F)(F)F.O=C(O)C(F)(F)F.O=C(O)C(F)(F)F", "UniProtKB P08172", "5.62 nM"),
    ("CC1(C)C(/C=C/C=C/C=C2/N(CCCCCC(=O)NCCN3CCN(CCCCC4CCN(CC(=O)N5c6ccccc6NC(=O)c6ccccc65)CC4)CC3)c3ccc(S(=O)(=O)O)cc3C2(C)C)=[N+](CCCCS(=O)(=O)[O-])c2ccccc21.O=C(O)C(F)(F)F.O=C(O)C(F)(F)F", "UniProtKB P08172", "4.68 nM"),
]

# evaluate next
Query: Entry `CC1(C)C(/C=C/C=C/C=C2/N(CCCCCC(=O)NCCN3CCN(CCCCC4CCN(CC(=O)N5c6ccccc6NC(=O)c6ccccc65)CC4)CC3)c3ccccc3C2(C)C)=[N+](CCCCS(=O)(=O)[O-])c2ccccc21` , system UniProtKB P08172: what Kd was measured?
Result: 8.71 nM
